# experiment: Drug level in mouse brain at 10 mg/kg, ip after 2 hrs
# Type: ADME, organism-based
# Set-up: dose 10 mg/kg, route intraperitoneal
# setup.conditions: read-out: Drug uptake
concentration at 2 h values, listed per item
Lab book: enter the figure in µM, no units written.

Known results for compounds:
>>> measured_number("CC(C)n1cc(-c2ccc3cnc(Nc4ccc(-n5cnc(N6CCOCC6)n5)cc4)nc3c2Cl)cn1")
7.2
>>> measured_number("Cn1cc(-c2ccc3cnc(Nc4ccc(-n5cnc(N6CCOCC6)n5)cc4)nc3c2C2CC2)cn1")
5
>>> measured_number("Cc1ncn(-c2ccc(Nc3ncc4cccc(-c5nccs5)c4n3)cc2)n1")
4.5

Now for the compound whose concentration at 2 h we want.
Input line: Any idea what its concentration at 2 h is? The compound is Cn1cc(-c2ccc3cnc(Nc4ccc(-n5cnc(N6CCOCC6)n5)cc4)nc3c2-c2ccccc2)cn1
Output line: 1.1

---

We begin with a simple list: items and their reported IC50.
# study.system: Mitogen-activated protein kinase 10 (Homo sapiens, UniProt P53779)
# Sequence (P53779 whole entry): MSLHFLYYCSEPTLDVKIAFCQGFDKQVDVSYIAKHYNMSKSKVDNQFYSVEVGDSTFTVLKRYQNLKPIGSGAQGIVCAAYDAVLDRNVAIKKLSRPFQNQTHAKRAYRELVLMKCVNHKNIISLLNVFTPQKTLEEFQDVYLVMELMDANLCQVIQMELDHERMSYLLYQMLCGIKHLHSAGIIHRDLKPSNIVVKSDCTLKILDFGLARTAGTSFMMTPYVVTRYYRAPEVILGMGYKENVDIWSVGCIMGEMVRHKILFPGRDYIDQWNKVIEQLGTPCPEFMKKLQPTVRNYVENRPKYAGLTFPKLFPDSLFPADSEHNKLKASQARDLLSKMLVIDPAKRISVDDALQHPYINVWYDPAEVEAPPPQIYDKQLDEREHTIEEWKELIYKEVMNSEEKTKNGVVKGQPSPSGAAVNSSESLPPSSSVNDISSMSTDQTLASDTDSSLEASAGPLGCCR
# experiment: Inhibition of JNK3 by HRTF
Kindly provide the numeric value in µM only, without the unit symbol.

// known answers, use as guide
>>> measured_number("COc1ccc(-c2cccc3cnc(Nc4ccc(-n5cnc(N6CCOCC6)n5)cc4)nc23)cc1F")
0.07
>>> measured_number("Cn1cc(-c2ccc3cnc(Nc4ccc(-n5cnc(N6CCOCC6)n5)cc4)nc3c2C(F)(F)F)cn1")
0.19
>>> measured_number("Cn1cc(-c2ccc3cnc(Nc4ccc(-n5cnc(-c6ccccn6)n5)cc4)nc3c2)cn1")
0.06
>>> measured_number("Cn1cc(-c2ccc3cnc(Nc4ccc(-n5cnc(N6CCOCC6)n5)cc4)nc3c2C2CC2)cn1")
0.02
>>> measured_number("Cn1cc(-c2ccc3cnc(Nc4ccc(-n5cnc(N6CCOCC6)n5)cc4)nc3c2)cn1")
0.09
>>> measured_number("Cc1ccc(-c2cccc3cnc(Nc4ccc(C(=O)N5CCOCC5)cc4)nc23)cn1")
0.09

Input line: Entry under review: Cc1c(-c2cnn(C)c2)ccc2cnc(Nc3ccc(-n4cnc(N5CCOCC5)n4)cc3)nc12 . Reported IC50?
Output line: 0.01

Input line: What IC50 value was documented for this molecule, COc1c(-c2cnn(C)c2)ccc2cnc(Nc3ccc(-n4cnc(N5CCOCC5)n4)cc3)nc12 ?
Output line: 0.004

Input line: Given the entry Cc1ccc(-c2cccc3cnc(Nc4ccc5c(c4)OCO5)nc23)cn1 , report its measured IC50.
Output line: 0.06

---

# experiment: Drug level in mouse plasma at 10 mg/kg, ip after 2 hrs
# Type: ADME, organism-based
# Design: dose 10 mg/kg, route intraperitoneal
# setup.conditions: read-out: Drug uptake
Category scheme (concentration at 2 h): bottom bin: < 5 µM; middle bin: ≥ 5 µM and < 9 µM; top bin: ≥ 9 µM

These solved cases illustrate the format of a correct answer.
>>> assigned_class("Cn1cc(-c2cccc3cnc(Nc4ccc(-n5cnc(N6CCOCC6)n5)cc4)nc23)cn1")
"bottom bin"
>>> assigned_class("Cn1cc(-c2ccc3cnc(Nc4ccc(-n5cnc(N6CCOCC6)n5)cc4)nc3c2-c2cnn(C)c2)cn1")
"middle bin"

Input line: # bin label for Cn1cc(-c2ccc3cnc(Nc4ccc(-n5cnc(N6CCOCC6)n5)cc4)nc3c2Cl)cn1
Output line: top bin

Input line: Which of the defined bands does the recorded concentration at 2 h of Cn1cc(-c2ccc3cnc(Nc4ccc(-n5cnc(N6CCOCC6)n5)cc4)nc3c2C2CC2)cn1 sit within?
Output line: top bin

Input line: Assign a category based on measured concentration at 2 h for COc1c(-c2cnn(C)c2)ccc2cnc(Nc3ccc(-n4cnc(N5CCOCC5)n4)cc3)nc12 and give only the class name.
Output line: top bin

Input line: Kindly identify the class of Cc1ccc(-c2cccc3cnc(Nc4ccc(-n5cnc(C)n5)cc4)nc23)cn1 .
Output line: bottom bin

Input line: Please let me know in which category the item COc1ccc(-c2cccc3cnc(Nc4ccc(-n5cnc(C)n5)cc4)nc23)cc1F belongs.
Output line: top bin

Input line: Lab note: which band did CC(C)n1cc(-c2ccc3cnc(Nc4ccc(-n5cnc(N6CCOCC6)n5)cc4)nc3c2Cl)cn1 land in?
Output line: bottom bin

Input line: Pick a category. Item: COc1ccc(-c2cccc3cnc(Nc4ccc(-n5cnc(N6CCOCC6)n5)cc4)nc23)cc1F
Output line: middle bin

Input line: Class for Cn1cc(-c2ccc3cnc(Nc4ccc(-n5cnc(N6CCOCC6)n5)cc4)nc3c2-c2ccccc2)cn1 ?
Output line: middle bin
